The measurements presented in this section are drawn from ChEMBL document CHEMBL1201862.

Entries and their GI50 values follow.
tested on: 786-0; test: NCI tumour cell line growth inhibition, 48 h
Activity calls are given as the source filed them. Cut-off read from the data, not from the text of the source: active = GI50 up to about 1.1 µM and inactive = higher.

# count of solved cases: 9
{"compound": "Cc1cc(C)nc(NS(=O)(=O)c2ccc(Nc3c4ccccc4nc4c(C(=O)N5CCN(CCO)CC5)ccc(Cl)c34)cc2)n1", "GI50": "68.1 µM (inactive)"}
{"compound": "N#Cc1cc([N+](=O)[O-])ccc1NC(=O)C(=O)C(C(=O)c1ccc2ccccc2c1)C1OCc2ccccc21 (stereo not given)", "GI50": "6.28 µM (inactive)"}
{"compound": "Cc1ccc(S(=O)(=O)N/N=C/C2(c3ccccc3)c3ccccc3-c3ccccc32)cc1", "GI50": "12.1 µM (inactive)"}
{"compound": "CN(CCc1ccc(Br)cc1)CCN1CCCCC1", "GI50": "30.1 µM (inactive)"}
{"compound": "CC(C)=CCc1c2c(c3occ(-c4ccc(O)c(O)c4)c(=O)c3c1O)C=CC(C)(C)O2", "GI50": "1.51 µM (inactive)"}
{"compound": "CC(C)(Cl)C(Cl)CC/C(CBr)=C(\\Cl)CBr (stereo not given)", "GI50": "1.36 µM (inactive)"}
{"compound": "C=C(C)C(=O)OC1CC2(C)OC2CC(OC(C)=O)/C(C)=C/C2OC(=O)C(=C)C21 (stereo not given)", "GI50": "2.22 µM (inactive)"}
{"compound": "O=C(C#CP(=O)(O)c1ccccc1)c1ccccc1", "GI50": "> 100 µM (inactive)"}
{"compound": "CN(C)CCC(/C=C/c1ccccc1)=N\\Nc1ccccc1", "GI50": "2.03 µM (inactive)"}

Here is another compound to look at.
IN: Give 786-0 GI50 for CC1(C)N=C(N)N=C(N)N1c1cccc(OCc2cccc([N+](=O)[O-])c2)c1
OUT: 5.78 µM (inactive)
